Examples of compounds with documented MIC follow.
Tested on: Streptococcus pyogenes, ATCC 700294
Assay: Minimal inhibitory concentration assay (microbroth dilution)
Assay type: cell-based
Details: Streptococcus pyogenes, ATCC700294, read-out: Minimal Inhibitory Concentrations S. pyogenes ATCC 700294
*1 amine or outer side, *2 acyl side, *3 side chain or, on linkers, in order; H or OH if unused. Where a SMILES comes first, the peptide text is derived from it. Bridges are numbered along the chain shown (N, C = ends). [ ]: non-standard residue; d: D form. The star is where a group is joined. ξ: configuration not given here. Phe(3,5-F2) = N[C@@H](Cc1cc(F)cc(F)c1)C(=O)O; NH(1-Me-indolin-5-yl) = CN1CCc2cc(N*)ccc21; Pro(4S-Me) = C[C@@H]1CN[C@H](C(=O)O)C1; Pro(4R-Me) = C[C@H]1CN[C@H](C(=O)O)C1; X11 = O=C(C1C[C@@H](F)CN1[*:1])[*:2]; X10 = O=C(C1C[C@H](F)CN1[*:1])[*:2]; NMeaThr = CN[C@H](C(=O)O)[C@H](C)O; ξPro(4R-Me) = C[C@H]1CNC(C(=O)O)C1; NMeT = CN[C@H](C(=O)O)[C@@H](C)O; NH(4-Me-phenyl) = Cc1ccc(N*)cc1; aThr = C[C@H](O)[C@H](N)C(=O)O; X5 = O=C(C1COCCN1[*:1])[*:2]; Pip = O=C(O)[C@@H]1CCCCN1; ξPip = O=C(O)C1CCCCN1; CO = O=C([*:1])[*:2]; ξP = O=C(O)C1CCCN1
Only the number, expressed in µM, is required.

Known MIC results, listed for orientation:
compound	reported_metric	reported_result
Cc1ccc(NC(=O)N[C@@H](Cc2cc(F)cc(F)c2)C(=O)N[C@@H]2C(=O)N3CCC[C@H]3C(=O)N(C)[C@@H]([C@H](C)O)C(=O)N[C@@H](C)C(=O)N3C[C@@H](C)C[C@H]3C(=O)O[C@H]2C)cc1 [Compound 202] ({NH(4-Me-phenyl)-CO}-[Phe(3,5-F2)][aThr]P[NMeaThr]A[Pro(4S-Me)]; ester 2-C)	MIC	0.391
Cc1ccc(NC(=O)N[C@@H](Cc2cc(F)cc(F)c2)C(=O)N[C@@H]2C(=O)N3CCC[C@H]3C(=O)N3CCCC[C@H]3C(=O)N[C@@H](C)C(=O)N3CCC[C@H]3C(=O)O[C@H]2C)cc1 [Compound 15] ({NH(4-Me-phenyl)-CO}-[Phe(3,5-F2)][aThr]P[Pip]AP; ester 2-C)	MIC	0.6
Cc1ccc(NC(=O)N[C@@H](Cc2cc(F)cc(F)c2)C(=O)N[C@@H]2C(=O)N3CCCC3C(=O)N3CCOCC3C(=O)N[C@@H](C)C(=O)N3C[C@H](C)CC3C(=O)O[C@H]2C)cc1 (stereo partly drawn) [Compound 47] ({NH(4-Me-phenyl)-CO}-[Phe(3,5-F2)][aThr][ξP][X5]A[ξPro(4R-Me)]; ester 2-C)	MIC	0.02
Cc1ccc(NC(=O)N[C@@H](Cc2cc(F)cc(F)c2)C(=O)N[C@H]2COC(=O)C3C[C@@H](F)CN3C(=O)[C@H](C)NC(=O)C3CCCCN3C(=O)C3CCCN3C2=O)cc1 (stereo partly shown) [Compound 51] ({NH(4-Me-phenyl)-CO}-[Phe(3,5-F2)]S[ξP][ξPip]A[X11]; ester 2-C)	MIC	12.5
C[C@@H]1C[C@H]2C(=O)OC[C@H](NC(=O)[C@H](Cc3ccccc3)NC(=O)Nc3cccc(Cl)c3)C(=O)N3CCC[C@H]3C(=O)N3CCCC[C@H]3C(=O)N[C@@H](C)C(=O)N2C1 [Compound 9]	MIC	1.56

Could you tell me which MIC is on file for C[C@@H]1C[C@H]2C(=O)O[C@@H](C)[C@H](NC(=O)[C@H](Cc3cc(F)cc(F)c3)NC(=O)Nc3ccc4c(c3)CCN4C)C(=O)N3CCC[C@H]3C(=O)N3CCCC[C@H]3C(=O)N[C@@H](C)C(=O)N2C1 [Compound 310] ({NH(1-Me-indolin-5-yl)-CO}-[Phe(3,5-F2)][aThr]P[Pip]A[Pro(4R-Me)]; ester 2-C) ?
0.156

And the next one, Cc1ccc(NC(=O)N[C@@H](Cc2cc(F)cc(F)c2)C(=O)N[C@H]2COC(=O)C3C[C@H](F)CN3C(=O)[C@H](C)NC(=O)C3CCCCN3C(=O)C3CCCN3C2=O)cc1 (stereo partly shown) [Compound 50] ({NH(4-Me-phenyl)-CO}-[Phe(3,5-F2)]S[ξP][ξPip]A[X10]; ester 2-C) ?
1.6

And the next one, Cc1ccc(NC(=O)N[C@@H](Cc2cc(F)cc(F)c2)C(=O)N[C@@H]2C(=O)N3CCC[C@H]3C(=O)N(C)[C@@H]([C@@H](C)O)C(=O)N[C@@H](C)C(=O)N3C[C@@H](C)C[C@H]3C(=O)O[C@H]2C)cc1 [Compound 35] ({NH(4-Me-phenyl)-CO}-[Phe(3,5-F2)][aThr]P[NMeT]A[Pro(4S-Me)]; ester 2-C) ?
0.39
